List of pKd values.
# study target: T1, ARHGEF11, O15085
# T1 sequence (O15085 42-136, limits assumed, looked up): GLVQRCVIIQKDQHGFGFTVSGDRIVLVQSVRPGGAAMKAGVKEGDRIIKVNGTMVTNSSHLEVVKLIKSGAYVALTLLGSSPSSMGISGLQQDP
# assay procedure: holdup assay
# Design: key: below the threshold = too weak to quantify, mostly under pKd 3.1 to 4
# condition details: plain residues with an end cap or a label only (N-terminal biotin on a linker: ado-ado)
readout type: pKd

binder: LPHGHSTTRV [NLGN4X, Q8N0W4]
readout type: pKd
result number: 4.04
--
binder: KSGKQTMLVV [TRIM29, Q14134]
readout type: pKd
result number: 3.89

Ref: paper PMC9482650
